Reported pIC50 by item:
assayed_target: BCDIN3D (Homo sapiens)
procedure_details: BCDIN3D IC50 RFMS (RapidFire) assay with mini-helix
Type: biochemical
run_conditions: mini-helix substrate 0.2 μM, SAM 6 μM, 25 nM enzyme
pIC50: −log10 of the molar value.
measured_quantity: pIC50

>>> recorded_measurement("Cn1ncc2c(Nc3ccc(C(F)(F)F)nc3)nc(NCC3(N)CCCC3)nc21 [Compound 3.19]")
6.45
>>> recorded_measurement("Cn1ncc2c(NCc3ccc(Br)cc3)nc(NCC(N)c3ccccc3)nc21 (centres unmarked) [Compound 4.07]")
6.88
>>> recorded_measurement("Cn1ncc2c(Nc3ccc(C(F)(F)F)cc3)nc(NCC3(N)CC(F)(F)C3)nc21 [Compound 3.12]")
6.32
>>> recorded_measurement("Cn1ncc2c(NC3CC4(CC(O)C4)C3)nc(NC[C@H](N)c3ccccc3)nc21 (some centres unmarked) [Compound 4.124]")
6.54
>>> recorded_measurement("Cn1ncc2c(NC3CC34CC4)nc(NC[C@H](N)c3ccccc3)nc21 (some centres unmarked) [Compound 4.80]")
6.18
>>> recorded_measurement("Cn1ncc2c(NC(C)(C)C)nc(NCC(N)c3ccccc3)nc21 (centres unmarked) [Compound 4.50]")
6.71
>>> recorded_measurement("Cn1ncc2c(NCC3CC3(C)C)nc(NC[C@H](N)c3ccccc3)nc21 (some centres unmarked) [Compound 4.62]")
8.21
>>> recorded_measurement("Cn1ncc2c(Nc3ccc(C(F)(F)F)nc3)nc(NCC(C)(N)c3ccccc3)nc21 (centres unmarked) [Compound 4.26]")
7.66

----------
assayed_target: BCDIN3D (Homo sapiens, UniProt Q7Z5W3)
procedure_details: BCDIN3D IC50 RFMS (RapidFire) assay with mini-helix
Format: biochemical
run_conditions: mini-helix substrate 0.2 μM, SAM 6 μM, 25 nM enzyme
pIC50: −log10 of the molar value.
Below is a list of entries, each paired with its recorded pIC50 value.
measured_quantity: pIC50

>>> recorded_measurement("Cn1ncc2c(Nc3ccc(OC(F)F)cc3)nc(NCC(N)c3ccccc3)nc21 (centres unmarked)")
7.05
>>> recorded_measurement("Cn1ncc2c(NC3CC(C)(C)C3)nc(NC[C@H](N)c3ccccc3)nc21")
7.85
>>> recorded_measurement("Cn1ncc2c(Nc3ccc(Cl)cc3)nc(NC[C@H](N)c3ccccc3)nc21")
7.54
>>> recorded_measurement("Cn1ncc2c(NC34CC(C#N)(C3)C4)nc(NCC3(N)CC3)nc21")
5.07
>>> recorded_measurement("Cn1ncc2c(NC3CC(C(F)(F)F)C3)nc(NC[C@H](N)c3ccccc3)nc21 (some centres unmarked)")
7.77
>>> recorded_measurement("Cn1ncc2c(Nc3ccc(Cl)cn3)nc(NCC3(N)CC3)nc21")
5.68
>>> recorded_measurement("Cn1ncc2c(NCC(C)(C)C)nc(NC[C@H](N)c3ccccc3)nc21")
6.81
>>> recorded_measurement("Cn1ncc2c(NC34CC(F)(C3)C4)nc(NCC3(N)CC3)nc21")
5.55
>>> recorded_measurement("CC(C)[C@@H](C)Nc1nc(NC[C@H](N)c2ccccc2)nc2c1cnn2C")
6.92
>>> recorded_measurement("Cn1ncc2c(Nc3cccc(C(F)F)c3)nc(NCC3(N)CC3)nc21")
6.35
>>> recorded_measurement("Cn1ncc2c(NC3CC4(COC4)C3)nc(NC[C@H](N)c3ccccc3)nc21")
6.43
>>> recorded_measurement("Cc1ccc(CNc2nc(NC[C@H]3CCCN3)nc3c2cnn3C)cc1Cl")
5.02
>>> recorded_measurement("Cn1ncc2c(NC(C)(C)CCO)nc(NC[C@H](N)c3ccccc3)nc21")
5.89
>>> recorded_measurement("Cn1ncc2c(Nc3ccc(C(F)(F)F)c(F)c3)nc(NCC3(N)CC3)nc21")
7.68
>>> recorded_measurement("[2H]C([2H])([2H])n1ncc2c(NC(C)(C)C)nc(NCC(N)c3ccccc3F)nc21 (centres unmarked)")
6.53
>>> recorded_measurement("Cn1ncc2c(Nc3ccc(F)c(F)c3)nc(NC[C@H](N)c3ccccc3)nc21")
6.93
>>> recorded_measurement("Cn1ncc2c(Nc3ccc(C(F)(F)F)cc3)nc(NCC3(N)CCC3)nc21")
7.30

----------
assayed_target: BCDIN3D (Homo sapiens, UniProt Q7Z5W3)
Sequence (Q7Z5W3 1-292): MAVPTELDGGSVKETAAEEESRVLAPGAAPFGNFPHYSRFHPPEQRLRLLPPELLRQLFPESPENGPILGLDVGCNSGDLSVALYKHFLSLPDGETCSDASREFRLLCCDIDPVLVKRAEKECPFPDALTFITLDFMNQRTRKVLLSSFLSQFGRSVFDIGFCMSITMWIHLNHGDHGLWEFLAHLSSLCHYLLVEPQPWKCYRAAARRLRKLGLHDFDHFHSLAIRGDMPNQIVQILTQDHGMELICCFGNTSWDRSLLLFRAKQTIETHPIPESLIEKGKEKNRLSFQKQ
procedure_details: BCDIN3D IC50 RFMS (RapidFire) assay with mini-helix
Type: biochemical
run_conditions: mini-helix substrate 0.2 μM, SAM 6 μM, 25 nM enzyme
measured_quantity: IC50 (nM)

>>> recorded_measurement("CCn1ncc2c(NC(C)C)nc(NCC(N)c3ccccc3)nc21 (stereo not shown)")
4280
>>> recorded_measurement("[2H]C([2H])([2H])n1ncc2c(NC(C)(C)C)nc(NC[C@H](N)c3ccccc3)nc21")
133
>>> recorded_measurement("Cn1ncc2c(Nc3cc(F)ccc3F)nc(NCC3(N)CC3)nc21")
1540
>>> recorded_measurement("Cn1ncc2c(NC3(C)CCCCC3)nc(NC[C@H](N)c3ccccc3)nc21")
369

----------
assayed_target: BCDIN3D (Homo sapiens, UniProt Q7Z5W3)
procedure_details: BCDIN3D IC50 RFMS (RapidFire) assay with mini-helix
Type: biochemical
run_conditions: mini-helix substrate 0.2 μM, SAM 6 μM, 25 nM enzyme
measured_quantity: IC50 (nM)

>>> recorded_measurement("Cn1ncc2c(NC34CC(C3)C4)nc(NCC3(N)CC3)nc21 [Compound 2.38]")
1710
>>> recorded_measurement("COc1ccc(Nc2nc(NC[C@H](N)c3ccccc3)nc3c2cnn3C)cc1 [Compound 4.32]")
95.8
>>> recorded_measurement("Cn1ncc2c(Nc3ccc(C(F)(F)F)cc3)nc(NCC(N)c3ccccc3)nc21 (centres unmarked) [Compound 4.17]")
50.1
>>> recorded_measurement("COc1cc(Nc2nc(NCC3(N)CC3)nc3c2cnn3C)ccc1Cl [Compound 2.41]")
211
>>> recorded_measurement("Cn1ncc2c(Nc3cccc(C(F)(F)F)c3)nc(NCC3(N)CC3)nc21 [Compound 2.06]")
509

----------
assayed_target: BCDIN3D (Homo sapiens, UniProt Q7Z5W3)
procedure_details: BCDIN3D IC50 RFMS (RapidFire) assay with mini-helix
Format: biochemical
run_conditions: mini-helix substrate 0.2 μM, SAM 6 μM, 25 nM enzyme
Measured IC50 values are reported for all entries that follow.
measured_quantity: IC50 (nM)

>>> recorded_measurement("Cn1ncc2c(NC(C)(C)C(F)(F)F)nc(NC[C@H](N)c3ccccc3)nc21")
240
>>> recorded_measurement("Cn1ncc2c(NC3CC4(CCC4)C3)nc(NC[C@H](N)c3ccccc3)nc21")
8
>>> recorded_measurement("Cn1ncc2c(Nc3ccc(OC(F)(F)F)cc3)nc(NCC(C)(N)c3ccccc3)nc21 (centres unmarked)")
52.1
>>> recorded_measurement("Cn1ncc2c(Nc3ccccc3)nc(NCC3(N)CCCC3)nc21")
1440
>>> recorded_measurement("Cn1ncc2c(Nc3ccc(Cl)c(C#N)c3)nc(NCC3(N)CC3)nc21")
440
>>> recorded_measurement("Cn1ncc2c(NC3CCC(C(F)(F)F)CC3)nc(NC[C@H](N)c3ccccc3)nc21 (some centres unmarked)")
450
>>> recorded_measurement("Cn1ncc2c(NCC3CC34CCC4)nc(NC[C@H](N)c3ccccc3)nc21 (some centres unmarked)")
28
>>> recorded_measurement("Cn1ncc2c(NC34CC(F)(C3)C4)nc(NC[C@H](N)c3ccccc3)nc21")
179
>>> recorded_measurement("Cn1ncc2c(NCc3ccc(F)c(Cl)c3)nc(NCC(N)c3ccccc3)nc21 (centres unmarked)")
109
>>> recorded_measurement("[2H]C([2H])([2H])n1ncc2c(NC)nc(NCC(N)c3ccccc3)nc21 (centres unmarked)")
8100
>>> recorded_measurement("Cn1ncc2c(NCC3CCC3F)nc(NC[C@H](N)c3ccccc3)nc21 (some centres unmarked)")
164
>>> recorded_measurement("Cn1ncc2c(NCC(C)(F)F)nc(NC[C@H](N)c3ccccc3)nc21")
252
>>> recorded_measurement("CNc1nc(NCC(C)(N)c2ccccc2)nc2c1cnn2C (centres unmarked)")
9170
>>> recorded_measurement("Cn1ncc2c(NC34CC(C#N)(C3)C4)nc(NCC(N)c3ccccc3)nc21 (centres unmarked)")
202
>>> recorded_measurement("Cn1ncc2c(Nc3ccc(C(F)(F)F)nc3)nc(NCC3(N)CCOC3)nc21 (centres unmarked)")
1630
>>> recorded_measurement("Cn1ncc2c(NC(C)(C)C)nc(NCC(N)c3ccccn3)nc21 (centres unmarked)")
1100
>>> recorded_measurement("C#CCCC1(CCOc2ccc(CNc3nc(NCC4(N)CC4)nc4c3cnn4C)cc2Cl)N=N1")
179
>>> recorded_measurement("Cn1ncc2c(NC(C)(C)CO)nc(NC[C@H](N)c3ccccc3)nc21")
1400
>>> recorded_measurement("COc1ccc(CNc2nc(NCC(N)c3ccccc3)nc3c2cnn3C)c(OC)c1 (centres unmarked)")
178
>>> recorded_measurement("COCCNc1nc(NCC(N)c2ccccc2)nc2c1cnn2C (centres unmarked)")
3390
>>> recorded_measurement("CC(C)CNc1nc(NC[C@H](N)c2ccccc2)nc2c1cnn2C")
321
>>> recorded_measurement("Cn1ncc2c(Nc3ccc(OC(F)F)cc3)nc(NCC3(N)CCCC3)nc21")
305
>>> recorded_measurement("Cn1ncc2c(NC(C)(C)C)nc(NCC(N)c3ccc(F)cc3)nc21 (centres unmarked)")
370
>>> recorded_measurement("Cn1ncc2c(Nc3ccc(F)cc3)nc(NCC(N)c3ccccc3)nc21 (centres unmarked)")
71.7
>>> recorded_measurement("Cn1ncc2c(NC3(C)CC(F)(F)C3)nc(NC[C@H](N)c3ccccc3)nc21")
1600
>>> recorded_measurement("Cn1ncc2c(Nc3cnc(C(F)(F)F)cn3)nc(NCC3(N)CC3)nc21")
4520
>>> recorded_measurement("CC(C)Nc1nc(NCC(N)c2ccc(Br)cc2)nc2c1cnn2C (centres unmarked)")
375
>>> recorded_measurement("Cn1ncc2c(Nc3ccc(C#N)cc3)nc(NCC3(N)CC3)nc21")
976
>>> recorded_measurement("CC[C@@H](CN)Nc1nc(NCc2ccc(C)c(Cl)c2)c2cnn(C)c2n1")
1440
>>> recorded_measurement("CC(C)Oc1ccc(Nc2nc(NCC3(N)CC3)nc3c2cnn3C)cc1")
332
>>> recorded_measurement("Cn1ncc2c(NCC(F)(F)F)nc(NC[C@H](N)c3ccccc3)nc21")
316
>>> recorded_measurement("CCC(C)(C)Nc1nc(NC[C@H](N)c2ccccc2)nc2c1cnn2C")
463
>>> recorded_measurement("Cn1ncc2c(NCc3ccc(F)cc3F)nc(NCC3(N)CC3)nc21")
1000
>>> recorded_measurement("Cn1ncc2c(Nc3ccc(C(F)(F)F)cc3)nc(NCC(N)c3ccccn3)nc21 (centres unmarked)")
89.4
>>> recorded_measurement("CC(C)Nc1nc(NC[C@H](N)c2cccc(Br)c2)nc2c1cnn2C")
28.4
